Origin of the recorded values: the supplement of paper PMC7695840

Tested on: Staphylococcus aureus MW2 (mecA+)
Assay: normalized DsRed fluorescence (growth of mecA+ strain) (fraction of control range); higher = more growth of mecA+ strain
Conditions: compound concentration: 150 uM; cefoxitin: subinhibitory; fluorescent label: DsRed
Where a name gives a salt, the structure may show the parent alone.
Class key for normalized DsRed fluorescence values: low group: < 0.6; middle group: ≥ 0.6 and < 0.9; high group: ≥ 0.9

Q: The entry to classify is `CC[N+](CC)(CC)CCOc1cccc(OCC[N+](CC)(CC)CC)c1OCC[N+](CC)(CC)CC` ; which class holds it?
Ans: low group

Q: The entry to classify is CCCNCC(O)COc1ccccc1C(=O)CCc1ccccc1 (configuration not stated) ; which class holds it?
Ans: high group

Q: The entry to classify is Nc1c(Br)cc(Br)cc1CN[C@H]1CC[C@H](O)CC1 [Ambroxol HCl] ; which class holds it?
Ans: middle group

Q: The entry to classify is CS(=O)(=O)CCNCc1ccc(-c2ccc3ncnc(Nc4ccc(OCc5cccc(F)c5)c(Cl)c4)c3c2)o1 [Lapatinib Ditosylate (Tykerb)] ; which class holds it?
Ans: high group

Q: The entry to classify is `O=c1[nH]c(=O)n([C@H]2C[C@H](O)[C@@H](CO)O2)cc1I` ; which class holds it?
Ans: high group

Q: The entry to classify is CC(=O)CC(c1ccccc1)c1c(O)c2ccccc2oc1=O (configuration not stated) ; which class holds it?
Ans: low group

Q: The entry to classify is CC[C@]12C=CCN3CC[C@@]4(c5cc([C@@]6(C(=O)OC)C[C@@H]7C[C@@H](C(C)(F)F)CN(Cc8c6[nH]c6ccccc86)C7)c(OC)cc5N(C)[C@H]4[C@@](O)(C(=O)OC)[C@@H]1OC(C)=O)[C@@H]32 [Vinflunine Tartrate] ; which class holds it?
Ans: low group

Q: The entry to classify is Cc1ccccc1C(OCCN(C)C)c1ccccc1 (configuration not stated) ; which class holds it?
Ans: high group

Q: The entry to classify is Clc1ccc(C(c2ccccc2Cl)C(Cl)Cl)cc1 (configuration not stated) ; which class holds it?
Ans: middle group

Q: The entry to classify is `C[C@]12C=CC(=O)C=C1CC[C@@H]1[C@@H]2C(=O)C[C@@]2(C)[C@H]1CC[C@]2(O)C(=O)CO` ; which class holds it?
Ans: middle group

Q: The entry to classify is Cc1cc(C(C)(C)C)c(O)c(C)c1CC1=NCCN1 [Oxymetazoline hydrochloride] ; which class holds it?
Ans: high group

Q: The entry to classify is `Cn1cnc2c1c(=O)[nH]c(=O)n2C` ; which class holds it?
Ans: low group

Q: The entry to classify is `O=C(O)c1ccccc1C(=O)Nc1ccc(S(=O)(=O)Nc2nccs2)cc1` ; which class holds it?
Ans: middle group

Q: The entry to classify is `Cc1nnc(C(=O)NC(C)(C)c2nc(C(=O)NCc3ccc(F)cc3)c(O)c(=O)n2C)o1` ; which class holds it?
Ans: low group

Q: The entry to classify is `Cc1cn(-c2cc(NC(=O)c3ccc(C)c(Nc4nccc(-c5cccnc5)n4)c3)cc(C(F)(F)F)c2)cn1` ; which class holds it?
Ans: low group

----------
Tested on: Staphylococcus aureus MW2 (mecA+)
Experiment: normalized DsRed fluorescence (growth of mecA+ strain) (fraction of control range); higher = more growth of mecA+ strain
Settings: compound concentration: 150 uM; cefoxitin: subinhibitory; fluorescent label: DsRed
Structures can show the parent of a compound that is named as a salt.
Tag: rule met if measured normalized DsRed fluorescence is not below 0.8, rule not met if it is.

Q: Determine whether this compound has normalized DsRed fluorescence no lower than 0.8: `CC(C)(C)NC[C@H](O)COc1ccccc1C1CCCC1`
Ans: rule not met

Q: Determine whether this compound has normalized DsRed fluorescence no lower than 0.8: CC1=C(CC(=O)O)c2cc(F)ccc2/C1=C\c1ccc([S+](C)[O-])cc1 (stereo not drawn)
Ans: rule not met

Q: Determine whether this compound has normalized DsRed fluorescence no lower than 0.8: `Cc1cc(CC(=O)O)n(C)c1C(=O)c1ccc(Cl)cc1`
Ans: rule not met

Q: Determine whether this compound has normalized DsRed fluorescence no lower than 0.8: `CN(C)CCCN1c2ccccc2Sc2ccc(C(F)(F)F)cc21`
Ans: rule met

Q: Determine whether this compound has normalized DsRed fluorescence no lower than 0.8: `S=c1[nH]cnc2nc[nH]c12`
Ans: rule not met

Q: Determine whether this compound has normalized DsRed fluorescence no lower than 0.8: COc1cc(N)c(Cl)cc1C(=O)NC1CCN(CCCOc2ccc(F)cc2)CC1OC (stereo not drawn)
Ans: rule not met

Q: Determine whether this compound has normalized DsRed fluorescence no lower than 0.8: Nc1cccc2c1CN(C1CCC(=O)NC1=O)C2=O (stereo not drawn) [Lenalidomide]
Ans: rule met

Q: Determine whether this compound has normalized DsRed fluorescence no lower than 0.8: CN1C2CCCC1CC(NC(=O)c1nn(C)c3ccccc13)C2 (stereo not drawn)
Ans: rule not met

Q: Determine whether this compound has normalized DsRed fluorescence no lower than 0.8: `C[N+](C)(C)CCO.[Cl-]`
Ans: rule not met

Q: Determine whether this compound has normalized DsRed fluorescence no lower than 0.8: `CC(C)[N+](C)(CCOC(=O)C1c2ccccc2Oc2ccccc21)C(C)C`
Ans: rule not met

Q: Determine whether this compound has normalized DsRed fluorescence no lower than 0.8: `CC(=O)[C@@]1(O)CC[C@H]2[C@@H]3CCC4=CC(=O)CCC4=C3[C@@H](c3ccc(N(C)C)cc3)C[C@@]21C`
Ans: rule met

Q: Determine whether this compound has normalized DsRed fluorescence no lower than 0.8: `Cc1nc(C)c(Cl)c(O)c1Cl`
Ans: rule not met

Q: Determine whether this compound has normalized DsRed fluorescence no lower than 0.8: `CCCSc1nc(N[C@@H]2C[C@H]2c2ccc(F)c(F)c2)c2nnn([C@@H]3C[C@H](OCCO)[C@@H](O)[C@H]3O)c2n1`
Ans: rule not met

Q: Determine whether this compound has normalized DsRed fluorescence no lower than 0.8: `C[C@]12CCC(=O)C=C1[C@@H]1C[C@@H]1[C@H]1[C@@H]3[C@@H]4C[C@@H]4[C@@]4(CCC(=O)O4)[C@@]3(C)CC[C@@H]12`
Ans: rule not met

Q: Determine whether this compound has normalized DsRed fluorescence no lower than 0.8: `CC(=O)O[C@]1(C(C)=O)CC[C@H]2[C@@H]3C=C(Cl)C4=CC(=O)CC[C@]4(C)[C@H]3CC[C@@]21C`
Ans: rule not met

Q: Determine whether this compound has normalized DsRed fluorescence no lower than 0.8: `CC1=Nc2ccc(Cl)cc2S(=O)(=O)N1`
Ans: rule not met

Q: Determine whether this compound has normalized DsRed fluorescence no lower than 0.8: `CN(Cc1cc(Br)cc(Br)c1N)C1CCCCC1`
Ans: rule met

Q: Determine whether this compound has normalized DsRed fluorescence no lower than 0.8: `COc1ccc2[nH]c([S@@+]([O-])Cc3ncc(C)c(OC)c3C)nc2c1`
Ans: rule met

Q: Determine whether this compound has normalized DsRed fluorescence no lower than 0.8: `CCCc1nn(C)c2c(=O)[nH]c(-c3cc(S(=O)(=O)N4CCN(C)CC4)ccc3OCC)nc12`
Ans: rule not met

Q: Determine whether this compound has normalized DsRed fluorescence no lower than 0.8: `O=C1C(O)=C([C@H]2CC[C@H](c3ccc(Cl)cc3)CC2)C(=O)c2ccccc21`
Ans: rule not met

Q: Determine whether this compound has normalized DsRed fluorescence no lower than 0.8: `CCCCCCCCCCCCCCCCCCCCCCO`
Ans: rule not met

Q: Determine whether this compound has normalized DsRed fluorescence no lower than 0.8: `COc1cc(NS(=O)(=O)c2ccc(N)cc2)nc(OC)n1`
Ans: rule met

Q: Determine whether this compound has normalized DsRed fluorescence no lower than 0.8: CN(C)[C@@H](CCOc1cccc2ccccc12)c1ccccc1 [Dapoxetine hydrochloride (Priligy)]
Ans: rule met

Q: Determine whether this compound has normalized DsRed fluorescence no lower than 0.8: `O.O.O.O.O.O.O.O.O.O.O.O.O.O.O.O.O.O.O.O.O=S(=O)([O][Al])OC[C@H]1O[C@@](COS(=O)(=O)[O][Al])(O[C@H]2O[C@H](COS(=O)(=O)[O][Al])[C@@H](OS(=O)(=O)[O][Al])[C@H](OS(=O)(=O)[O][Al])[C@H]2OS(=O)(=O)[O][Al])[C@@H](OS(=O)(=O)[O][Al])[C@@H]1OS(=O)(=O)[O][Al].[Al]`
Ans: rule met

Q: Determine whether this compound has normalized DsRed fluorescence no lower than 0.8: CN(C)CC(c1ccc(O)cc1)C1(O)CCCCC1 (stereo not drawn)
Ans: rule met

Q: Determine whether this compound has normalized DsRed fluorescence no lower than 0.8: `O=C1O[C@H]([C@@H](O)CO)C(O)=C1O`
Ans: rule not met

Q: Determine whether this compound has normalized DsRed fluorescence no lower than 0.8: `CN(C)C/C=C/C(=O)Nc1cc2c(Nc3ccc(F)c(Cl)c3)ncnc2cc1O[C@H]1CCOC1`
Ans: rule met

Q: Determine whether this compound has normalized DsRed fluorescence no lower than 0.8: `C[C@@H]1C/C=C/C=C/C=C/C=C/[C@H](O[C@@H]2O[C@H](C)[C@@H](O)[C@H](N)[C@@H]2O)C[C@@H]2O[C@](O)(C[C@@H](O)C[C@H]3O[C@@H]3/C=C/C(=O)O1)C[C@H](O)[C@H]2C(=O)O`
Ans: rule not met

Q: Determine whether this compound has normalized DsRed fluorescence no lower than 0.8: `Nc1ccc(S(=O)(=O)c2ccc(N)cc2)cc1`
Ans: rule met

Q: Determine whether this compound has normalized DsRed fluorescence no lower than 0.8: `Cc1ccc(C(=O)Nc2ccc(S(=O)(=O)O)c3cc(S(=O)(=O)O)cc(S(=O)(=O)O)c23)cc1NC(=O)c1cccc(NC(=O)Nc2cccc(C(=O)Nc3cc(C(=O)Nc4ccc(S(=O)(=O)O)c5cc(S(=O)(=O)O)cc(S(=O)(=O)O)c45)ccc3C)c2)c1`
Ans: rule not met

Q: Determine whether this compound has normalized DsRed fluorescence no lower than 0.8: COc1cc2c(cc1OC)C(=O)C(CC1CCN(Cc3ccccc3)CC1)C2 (stereo not drawn)
Ans: rule not met

Q: Determine whether this compound has normalized DsRed fluorescence no lower than 0.8: `CCc1nc(N)nc(N)c1-c1ccc(Cl)cc1`
Ans: rule met

Q: Determine whether this compound has normalized DsRed fluorescence no lower than 0.8: `C=C[C@H]1CN2CC[C@H]1C[C@@H]2[C@@H](O)c1ccnc2ccc(OC)cc12`
Ans: rule not met

Q: Determine whether this compound has normalized DsRed fluorescence no lower than 0.8: `CCC(=O)OCC(=O)[C@@]1(OC(=O)CC)[C@@H](C)C[C@H]2[C@@H]3CCC4=CC(=O)C=C[C@]4(C)[C@@]3(Cl)[C@@H](O)C[C@@]21C`
Ans: rule met

Q: Determine whether this compound has normalized DsRed fluorescence no lower than 0.8: `CC(C)(C)NC[C@H](O)COc1cccc2c1CCCC2=O`
Ans: rule not met

Q: Determine whether this compound has normalized DsRed fluorescence no lower than 0.8: CCc1cccc2c3c([nH]c12)C(CC)(CC(=O)O)OCC3 (stereo not drawn)
Ans: rule not met

Q: Determine whether this compound has normalized DsRed fluorescence no lower than 0.8: COc1ccc(OC)c(C(O)CNC(=O)CN)c1 (stereo not drawn)
Ans: rule not met
